Molecular target: GSK3β (D133E) (Homo sapiens, UniProt P49841, D133E)
Sequence (P49841 whole entry D133E): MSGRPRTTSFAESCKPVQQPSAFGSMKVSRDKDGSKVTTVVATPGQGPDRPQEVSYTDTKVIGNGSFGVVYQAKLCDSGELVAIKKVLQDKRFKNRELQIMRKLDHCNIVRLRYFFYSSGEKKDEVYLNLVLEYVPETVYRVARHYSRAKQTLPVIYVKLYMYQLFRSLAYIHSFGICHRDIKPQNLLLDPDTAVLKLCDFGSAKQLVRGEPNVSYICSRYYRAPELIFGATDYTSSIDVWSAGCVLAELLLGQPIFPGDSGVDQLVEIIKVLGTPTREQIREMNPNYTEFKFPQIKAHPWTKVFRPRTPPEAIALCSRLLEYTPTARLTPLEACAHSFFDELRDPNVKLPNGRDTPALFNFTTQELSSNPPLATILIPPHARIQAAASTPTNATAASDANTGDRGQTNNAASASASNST
Assay: Mobility shift microfluidic assay
Settings: read-out: GSK3β (D133E) IC50; at Km of ATP
pIC50: −log10 of the molar value.
Recorded pIC50 for the following compounds

>  <Compound>
CC[C@@]1(c2ccccc2)C2=C(CC(C)(C)CC2=O)Nc2[nH]ncc21

>  <System Under Test>
GSK3β (D133E) (Homo sapiens, UniProt P49841, D133E)

>  <pIC50>
6.96

$$$$
>  <Compound>
CC(C)(C)Cc1[nH]nc2c1[C@](C)(c1ccccc1)C1=C(CC(C)(C)CC1=O)N2

>  <System Under Test>
GSK3β (D133E) (Homo sapiens, UniProt P49841, D133E)

>  <pIC50>
7.28

$$$$

* * *

Molecular target: CDK3 (Homo sapiens, UniProt Q00526)
Sequence (Q00526 whole entry): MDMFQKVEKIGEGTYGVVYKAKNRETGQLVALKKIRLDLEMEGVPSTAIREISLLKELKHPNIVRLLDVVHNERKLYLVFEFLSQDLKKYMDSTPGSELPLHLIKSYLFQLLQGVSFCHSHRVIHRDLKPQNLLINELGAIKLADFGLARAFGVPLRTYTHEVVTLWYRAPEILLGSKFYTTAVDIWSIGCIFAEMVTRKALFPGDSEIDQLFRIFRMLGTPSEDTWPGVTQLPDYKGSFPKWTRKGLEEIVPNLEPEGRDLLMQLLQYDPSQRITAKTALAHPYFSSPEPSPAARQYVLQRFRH
Sequence (P24864 whole entry partner): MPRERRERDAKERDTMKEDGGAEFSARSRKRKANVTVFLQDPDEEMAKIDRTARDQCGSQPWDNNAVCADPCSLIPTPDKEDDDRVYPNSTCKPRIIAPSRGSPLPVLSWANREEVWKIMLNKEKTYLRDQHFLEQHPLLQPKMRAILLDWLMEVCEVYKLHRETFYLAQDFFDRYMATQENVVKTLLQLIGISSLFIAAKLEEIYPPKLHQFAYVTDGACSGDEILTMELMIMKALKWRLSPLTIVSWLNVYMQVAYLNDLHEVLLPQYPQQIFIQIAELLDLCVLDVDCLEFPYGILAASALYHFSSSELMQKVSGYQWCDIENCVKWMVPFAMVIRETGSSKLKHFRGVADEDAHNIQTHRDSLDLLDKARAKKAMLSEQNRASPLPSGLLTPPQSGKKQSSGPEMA

>  <Compound>
CC[C@@]1(c2ccccc2)C2=C(CC(C)(C)CC2=O)Nc2[nH]ncc21 [BRD0705]

>  <Unit>
µM

>  <IC50>
9.74

$$$$

* * *

Target: CDK2 (Homo sapiens)
Measured Quantity: IC50 (µM)

>  <Compound>
CC[C@@]1(c2ccccc2)C2=C(CC(C)(C)CC2=O)Nc2[nH]ncc21 [BRD0705]

>  <Measured Value>
6.87

$$$$
